- assayed system: Integrin alpha-IIb/beta-3 (Homo sapiens, UniProt P05106+P08514)
- Sequence (P05106 27-788 limits assumed): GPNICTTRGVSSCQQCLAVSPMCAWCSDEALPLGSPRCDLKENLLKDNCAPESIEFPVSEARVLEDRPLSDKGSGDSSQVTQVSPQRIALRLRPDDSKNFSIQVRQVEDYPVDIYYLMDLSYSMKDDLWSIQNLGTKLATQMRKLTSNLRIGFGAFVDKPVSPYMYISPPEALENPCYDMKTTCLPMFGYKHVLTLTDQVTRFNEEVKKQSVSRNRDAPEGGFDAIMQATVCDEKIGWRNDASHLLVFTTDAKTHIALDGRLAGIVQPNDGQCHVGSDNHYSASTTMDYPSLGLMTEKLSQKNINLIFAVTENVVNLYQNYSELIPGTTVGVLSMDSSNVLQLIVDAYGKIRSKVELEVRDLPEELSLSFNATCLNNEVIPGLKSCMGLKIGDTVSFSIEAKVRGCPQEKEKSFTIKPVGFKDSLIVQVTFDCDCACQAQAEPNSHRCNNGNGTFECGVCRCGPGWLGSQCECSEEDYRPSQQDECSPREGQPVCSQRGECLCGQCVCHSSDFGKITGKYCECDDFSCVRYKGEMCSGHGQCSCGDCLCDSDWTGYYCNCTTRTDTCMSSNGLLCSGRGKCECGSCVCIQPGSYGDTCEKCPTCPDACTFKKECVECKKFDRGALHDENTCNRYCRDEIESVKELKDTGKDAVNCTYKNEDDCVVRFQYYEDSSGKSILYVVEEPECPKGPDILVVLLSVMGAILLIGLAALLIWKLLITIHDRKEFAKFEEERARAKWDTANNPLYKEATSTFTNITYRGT
- Sequence (P08514 32-887 limits assumed): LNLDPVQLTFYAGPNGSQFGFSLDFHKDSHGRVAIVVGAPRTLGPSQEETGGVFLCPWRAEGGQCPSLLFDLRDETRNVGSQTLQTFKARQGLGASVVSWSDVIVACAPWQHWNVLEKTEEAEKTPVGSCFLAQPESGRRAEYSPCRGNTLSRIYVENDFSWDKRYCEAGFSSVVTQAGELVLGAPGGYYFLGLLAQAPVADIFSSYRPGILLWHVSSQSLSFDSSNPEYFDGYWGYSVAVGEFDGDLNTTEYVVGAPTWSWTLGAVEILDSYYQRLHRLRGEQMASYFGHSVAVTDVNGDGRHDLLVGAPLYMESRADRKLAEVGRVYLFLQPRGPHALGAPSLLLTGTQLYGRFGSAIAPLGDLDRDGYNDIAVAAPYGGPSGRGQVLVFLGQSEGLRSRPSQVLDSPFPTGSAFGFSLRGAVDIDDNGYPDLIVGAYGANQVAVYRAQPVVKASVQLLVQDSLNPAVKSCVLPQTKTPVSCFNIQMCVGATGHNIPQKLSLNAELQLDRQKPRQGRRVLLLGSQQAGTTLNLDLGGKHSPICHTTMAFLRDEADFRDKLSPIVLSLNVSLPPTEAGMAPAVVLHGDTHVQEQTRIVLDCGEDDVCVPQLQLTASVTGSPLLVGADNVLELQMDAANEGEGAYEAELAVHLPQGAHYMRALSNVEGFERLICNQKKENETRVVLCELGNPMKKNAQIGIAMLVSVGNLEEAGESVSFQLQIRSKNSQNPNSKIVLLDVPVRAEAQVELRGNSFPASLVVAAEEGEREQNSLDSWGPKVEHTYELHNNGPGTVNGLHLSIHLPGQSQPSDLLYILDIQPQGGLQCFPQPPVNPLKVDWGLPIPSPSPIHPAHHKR
- Sequence (P08514 891-1039 limits assumed): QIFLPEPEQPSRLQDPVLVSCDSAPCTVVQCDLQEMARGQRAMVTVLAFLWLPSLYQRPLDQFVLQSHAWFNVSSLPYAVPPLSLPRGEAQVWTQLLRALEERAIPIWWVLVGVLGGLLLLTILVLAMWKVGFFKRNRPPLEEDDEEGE
- protocol text: Inhibition of 125[I] Fibrinogen binding to isolated purified human fibrinogen receptor
Where a SMILES comes first, the peptide text is derived from it. Bridges are numbered along the chain shown (N, C = ends). [ ]: non-standard residue; d: D form. NMeR = CN[C@@H](CCCNC(=N)N)C(=O)O; Pen = CC(C)(S)[C@H](N)C(=O)O
endpoint: Ki (nM)
Number only, in nM; omit the unit.

Example entries and their recorded answers appear below.
molecule: CC(=O)N[C@H]1CSSC[C@@H](C(N)=O)NC(=O)[C@H](CC(=O)O)NC(=O)CNC(=O)[C@H](CCCN=C(N)N)NC1=O
unit descriptor: nM
recorded measurement: 780
//
molecule: CC(=O)N[C@@H]1CSSC(C)(C)[C@H](C(N)=O)NC(=O)[C@H](CC(=O)O)NC(=O)CNC(=O)[C@@H](CCCNC(=N)N)NC1=O
unit descriptor: nM
recorded measurement: 720
//
molecule: CC(=O)N[C@H]1CSSC[C@@H](C(N)=O)NC(=O)[C@H](CO)NC(=O)[C@H](CC(=O)O)NC(=O)CNC(=O)[C@H](CCCN=C(N)N)NC1=O (Ac-CRGDSC-NH2; disulfide 1-6)
unit descriptor: nM
recorded measurement: 5300

-- ask What measured Ki goes with CC(=O)N[C@H]1CSSC(C)(C)[C@@H](C(N)=O)NC(=O)[C@H](CC(=O)O)NC(=O)CNC(=O)[C@H](CCCN=C(N)N)N(C)C1=O (Ac-C[NMeR]GD[Pen]-NH2; disulfide 1-5) ?
-- reply 58
